Assay: Equilibrium constant measured by the pulse radiolysis at pH 7
Format: ADME
OUTCOME MEASURE: K (M⁻¹)

Worked cases, K given:
STRUCTURE NOTATION: CC(=O)OCCN(CCOC(C)=O)c1ccc([N+](=O)[O-])c2c(NCCCN(C)C)c3ccccc3nc12
UNIT OF MEASUREMENT: M⁻¹
K: 11.7
//
STRUCTURE NOTATION: COc1ccc([N+](=O)[O-])c2c(NCCCN(C)C)c3ccccc3nc12
UNIT OF MEASUREMENT: M⁻¹
K: 1.9
//
STRUCTURE NOTATION: CN(C)CCCNc1c2ccccc2nc2c(N(C)C)ccc([N+](=O)[O-])c12
UNIT OF MEASUREMENT: M⁻¹
K: 5.3
//
STRUCTURE NOTATION: CN(C)CCCNc1c2ccccc2nc2cccc([N+](=O)[O-])c12
UNIT OF MEASUREMENT: M⁻¹
K: 18

1: CN(C)CCCNc1c2ccccc2nc2c(Cl)ccc([N+](=O)[O-])c12
2: COC(=O)c1ccc([N+](=O)[O-])c2c(NCCCN(C)C)c3ccccc3nc12
Q: Consider entries 1 and 2 . Which has the numerically lower K? // respond with label for picked entry
Result: 1
(1: 7 M⁻¹, 2: 175 M⁻¹)

A: Cc1ccc([N+](=O)[O-])c2c(NCCCN(C)C)c3ccccc3nc12
B: CN(C)CCCNc1c2ccccc2nc2c(F)ccc([N+](=O)[O-])c12
Q: # return whichever of A and B has the smaller K Return value: the label identifying the chosen record.
Result: B
(B: 2.4 M⁻¹, A: 8.8 M⁻¹)
